Answer each item with its documented Kd.
# testTarget: T1, DR3 (CRD1)-Fc (human)
# T1 construct: Amino acids 25-71 of DR3 fused to the Fc domain of human IgG4; purified to exclude oligomers (mainly dimeric)
# T1 sequence (chain, as listed by the source limits assumed): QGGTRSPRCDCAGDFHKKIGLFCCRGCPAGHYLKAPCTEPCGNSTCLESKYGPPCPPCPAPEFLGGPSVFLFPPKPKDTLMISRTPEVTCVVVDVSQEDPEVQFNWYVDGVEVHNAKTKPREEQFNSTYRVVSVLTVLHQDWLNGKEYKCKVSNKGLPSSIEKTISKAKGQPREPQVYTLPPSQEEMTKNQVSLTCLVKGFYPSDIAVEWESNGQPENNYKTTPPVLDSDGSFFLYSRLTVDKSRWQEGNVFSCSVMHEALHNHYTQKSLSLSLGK
# assayProtocol: SPR Biacore T200, DR3(CRD1)-Fc captured by anti-human IgG, Fab as analyte, 25 C, 1:1 model, mean of 3 surface densities
Answers are plain numbers, in nM.

| binder | Kd / nM |
| --- | --- |
| 0124 (chimeric Fab of 28F26, human IgG4 constant domain, hinge Cys->Ser) (Fab, V domains shown, murine variable domains, human IgG4 constant domain (IgG4-Ser)) VH: EVKVVESGGGLVKPGGSLKLSCAASGFVFSSYDMSWVRQIPEKRLEWVAAISSGDYYTYYPDSVKGRFTISRDDARNTLYLQMSSLRSEDTALYYCARHRGGNYPQYAMDYWGQGTSVTVSS VL: DILLTQSPASFAVSLGQRATISCRASKSVSTSGYNYIHWYQQKPGQPPKLLIYLTSNLESGVPARFSGSGSGTDFTLNIHPVEEEDAATYYCQHSRELPFTFGSGTKLEIKR | 0.267 |

Would you kindly look at the next entry?
input: Dear colleague, I am looking for the recorded Kd of the following binder: 0228 (humanized Fab of 27F44, IgG4, hz0072VH S49A / hz0072VL) (Fab, V domains shown, IgG4-Cys, hz (humanized IgG4 Fab with the hinge cysteine kept)) VH: EVQLVESGGGLVQPGGSLRLSCAASGFTFSNYDMSWVRQATGKGLEWVAAFSSDGYTFYPGSVKGRFTISRENAKNSLYLQMNSLRAGDTAVYYCARHADYANYPVMDYWGQGTLVTVSS VL: DIQMTQSPSSLSASVGDRVTITCRASKSVSTSGYSYMHWYQQKPGKAPKLLIYLASNLESGVPSRFSGSGSGTDFTLTISSLQPEDFATYYCQHSRELPLTFGGGTKVEIKR
output: 0.00805

The reported numbers originate from patent US20170305994A1.
